Test system: HT-29
test_details: Cytotoxicity against human HT-29 cells assessed as cell growth at 10 uM after 24 hrs by SRB assay
Assay type: functional
test_conditions: HT-29, 24 h, read-out: Activity
// label = met if growth at 10 µM is not less than 90%, otherwise not met

Decide: growth at 10 µM of COCCCNc1nc(NC(=O)c2cc(Br)cc(C(F)(F)F)c2)cc(-c2cccnc2)n1 >= 90%?
not met

====

test_details: Cytotoxicity against human LOXIMVI cells after 24 hrs by SRB assay
Format: functional, cell-based
test_conditions: LOX IMVI
property_name: pIC50
Friendly reminder that pIC50 comes from taking -log10 of the concentration in mol/L.

Give me measured pIC50, please, for this compound: O=C(Nc1cc(-c2cccnc2)nc(NCCCN2CCOCC2)n1)c1cc(Br)cc(C(F)(F)F)c1
5.79

====

test_details: Cytotoxicity against human OVCAR3 cells assessed as cell growth at 10 uM after 24 hrs by SRB assay
Type: functional
test_conditions: OVCAR-3, 24 h, read-out: Activity
Each record here notes measured growth at 10 µM.
Hi! Could you send only the number? It should be in %, unit omitted.

Give me measured growth at 10 µM, please, for this compound: O=C(Nc1cc(-c2cccnc2)nc(NCCCN2CCOCC2)n1)c1cc(Br)cc(C(F)(F)F)c1
80

Give me measured growth at 10 µM, please, for this compound: COCCCNc1nc(NC(=O)c2cc(Br)cc(C(F)(F)F)c2)cc(-c2cccnc2)n1
109

Give me measured growth at 10 µM, please, for this compound: COCCCNc1nc(NC(=O)c2cc(OC)cc(OC)c2)cc(-c2cccnc2)n1
113

Give me measured growth at 10 µM, please, for this compound: O=C(Nc1cc(-c2cccnc2)nc(NCCCN2CCOCC2)n1)c1ccc(F)cc1Cl
106

Give me measured growth at 10 µM, please, for this compound: COc1cc(OC)cc(C(=O)Nc2cc(-c3cccnc3)nc(NCCCN3CCOCC3)n2)c1
105

Give me measured growth at 10 µM, please, for this compound: COCCCNc1nc(NC(=O)c2ccc(Cl)cc2C)cc(-c2cccnc2)n1
117

Give me measured growth at 10 µM, please, for this compound: Cc1cc(Cl)ccc1C(=O)Nc1cc(-c2cccnc2)nc(NCCCN2CCOCC2)n1
111

====

Each record here notes measured growth at 10 µM.
test_details: Cytotoxicity against human PC3 cells assessed as cell growth at 10 uM after 24 hrs by SRB assay
Assay type: functional
test_conditions: PC-3, 24 h, read-out: Activity
Hi! Could you send only the number? It should be in %, unit omitted.

Check out these entries, answers already filled in.
1. Cc1cc(Cl)ccc1C(=O)Nc1cc(-c2cccnc2)nc(NCCCN2CCOCC2)n1	107
2. O=C(Nc1cc(-c2cccnc2)nc(NCCCN2CCOCC2)n1)c1cc(Br)cc(C(F)(F)F)c1	57.7
3. O=C(Nc1cc(-c2cccnc2)nc(NCCCN2CCOCC2)n1)c1ccc(F)cc1Cl	91.2
4. COCCCNc1nc(NC(=O)c2cc(OC)cc(OC)c2)cc(-c2cccnc2)n1	87.3
5. COCCCNc1nc(NC(=O)c2cc(Br)cc(C(F)(F)F)c2)cc(-c2cccnc2)n1	70.6
6. COc1cc(OC)cc(C(=O)Nc2cc(-c3cccnc3)nc(NCCCN3CCOCC3)n2)c1	85.4

Now for the molecule whose growth at 10 µM we want.
Give me measured growth at 10 µM, please, for this molecule: COCCCNc1nc(NC(=O)c2ccc(Cl)cc2C)cc(-c2cccnc2)n1
110

====

test_details: Cytotoxicity against human RXF393 cells assessed as cell growth at 10 uM after 24 hrs by SRB assay
Assay type: functional
test_conditions: RXF 393, 24 h, read-out: Activity
Each record here notes measured growth at 10 µM.
Hi! Could you send only the number? It should be in %, unit omitted.

1) O=C(Nc1cc(-c2cccnc2)nc(NCCCN2CCOCC2)n1)c1ccc(F)cc1Cl	102

Give me measured growth at 10 µM, please, for this compound: COCCCNc1nc(NC(=O)c2cc(Br)cc(C(F)(F)F)c2)cc(-c2cccnc2)n1
103

Give me measured growth at 10 µM, please, for this compound: COCCCNc1nc(NC(=O)c2cc(OC)cc(OC)c2)cc(-c2cccnc2)n1
97.7

Give me measured growth at 10 µM, please, for this compound: COc1cc(OC)cc(C(=O)Nc2cc(-c3cccnc3)nc(NCCCN3CCOCC3)n2)c1
93.9

Give me measured growth at 10 µM, please, for this compound: COCCCNc1nc(NC(=O)c2ccc(Cl)cc2C)cc(-c2cccnc2)n1
91.1

Give me measured growth at 10 µM, please, for this compound: Cc1cc(Cl)ccc1C(=O)Nc1cc(-c2cccnc2)nc(NCCCN2CCOCC2)n1
101

Give me measured growth at 10 µM, please, for this compound: O=C(Nc1cc(-c2cccnc2)nc(NCCCN2CCOCC2)n1)c1cc(Br)cc(C(F)(F)F)c1
52.8

====

System: 786-0
test_details: Cytotoxicity against human 786-0 cells after 24 hrs by SRB assay
Type: functional, cell-based
test_conditions: 786-0, 24 h
property_name: pIC50
Friendly reminder that pIC50 comes from taking -log10 of the concentration in mol/L.

Report pIC50 on 786-0 for this entry: O=C(Nc1cc(-c2cccnc2)nc(NCCCN2CCOCC2)n1)c1cc(Br)cc(C(F)(F)F)c1
5.81

====

Test system: MDA-MB-231
test_details: Cytotoxicity against human MDA-MB-231 cells assessed as cell growth at 10 uM after 24 hrs by SRB assay
Format: functional
test_conditions: MDA-MB-231, 24 h, read-out: Activity
// label = class 1 if growth at 10 µM is not less than 80%, otherwise class 0

Consider the worked cases shown below.
1. Cc1cc(Cl)ccc1C(=O)Nc1cc(-c2cccnc2)nc(NCCCN2CCOCC2)n1	class 1
2. COCCCNc1nc(NC(=O)c2cc(OC)cc(OC)c2)cc(-c2cccnc2)n1	class 0

Consider the additional compound presented here.
Decide: growth at 10 µM of COCCCNc1nc(NC(=O)c2cc(Br)cc(C(F)(F)F)c2)cc(-c2cccnc2)n1 >= 80%?
class 0

====

test_details: Cytotoxicity against human HOP92 cells assessed as cell growth at 10 uM after 24 hrs by SRB assay
Assay type: functional
test_conditions: HOP-92, 24 h, read-out: Activity
Each record here notes measured growth at 10 µM.
Hi! Could you send only the number? It should be in %, unit omitted.

Check out these entries, answers already filled in.
1) COCCCNc1nc(NC(=O)c2ccc(Cl)cc2C)cc(-c2cccnc2)n1	67
2) Cc1cc(Cl)ccc1C(=O)Nc1cc(-c2cccnc2)nc(NCCCN2CCOCC2)n1	95.9
3) COCCCNc1nc(NC(=O)c2cc(OC)cc(OC)c2)cc(-c2cccnc2)n1	52.6
4) COCCCNc1nc(NC(=O)c2cc(Br)cc(C(F)(F)F)c2)cc(-c2cccnc2)n1	57.9
5) COc1cc(OC)cc(C(=O)Nc2cc(-c3cccnc3)nc(NCCCN3CCOCC3)n2)c1	67.7

Give me measured growth at 10 µM, please, for this compound: O=C(Nc1cc(-c2cccnc2)nc(NCCCN2CCOCC2)n1)c1cc(Br)cc(C(F)(F)F)c1
34.6

Give me measured growth at 10 µM, please, for this compound: O=C(Nc1cc(-c2cccnc2)nc(NCCCN2CCOCC2)n1)c1ccc(F)cc1Cl
91.2

====

Tested on: MDA-MB-231
test_details: Cytotoxicity against human MDA-MB-231 cells after 24 hrs by SRB assay
Format: functional, cell-based
test_conditions: MDA-MB-231, 24 h
property_name: IC50 (nM)
Hi! Could you send only the number? It should be in nM, unit omitted.

Give me measured IC50, please, for this compound: O=C(Nc1cc(-c2cccnc2)nc(NCCCN2CCOCC2)n1)c1cc(Br)cc(C(F)(F)F)c1
1790

====

test_details: Cytotoxicity against human SNB75 cells after 24 hrs by SRB assay
Format: functional, cell-based
test_conditions: SNB-75, 24 h
property_name: IC50
# answer = value followed by unit

Give me measured IC50, please, for this compound: O=C(Nc1cc(-c2cccnc2)nc(NCCCN2CCOCC2)n1)c1cc(Br)cc(C(F)(F)F)c1
1520 nM

====

test_details: Cytotoxicity against human MOLT4 cells assessed as cell growth at 10 uM after 24 hrs by SRB assay
Assay type: functional
test_conditions: MOLT-4, 24 h, read-out: Activity
Each record here notes measured growth at 10 µM.
Hi! Could you send only the number? It should be in %, unit omitted.

Check out these entries, answers already filled in.
1. Cc1cc(Cl)ccc1C(=O)Nc1cc(-c2cccnc2)nc(NCCCN2CCOCC2)n1	98
2. O=C(Nc1cc(-c2cccnc2)nc(NCCCN2CCOCC2)n1)c1ccc(F)cc1Cl	98.4
3. O=C(Nc1cc(-c2cccnc2)nc(NCCCN2CCOCC2)n1)c1cc(Br)cc(C(F)(F)F)c1	45.1
4. COCCCNc1nc(NC(=O)c2cc(OC)cc(OC)c2)cc(-c2cccnc2)n1	83.5
5. COCCCNc1nc(NC(=O)c2cc(Br)cc(C(F)(F)F)c2)cc(-c2cccnc2)n1	80.1
6. COc1cc(OC)cc(C(=O)Nc2cc(-c3cccnc3)nc(NCCCN3CCOCC3)n2)c1	82.3

Give me measured growth at 10 µM, please, for this compound: COCCCNc1nc(NC(=O)c2ccc(Cl)cc2C)cc(-c2cccnc2)n1
93.9
